All values here come from patent US20250034159A1.

Biological target: recombinant human EGFR exon 19 deletion/C797S double mutant protein (Homo sapiens (Human), UniProt P00533, C797S/DEL746-750)
Sequence (P00533 other isoform, or with tags, fused parts or gaps C797S/del 1-668/del 746-750 limits assumed): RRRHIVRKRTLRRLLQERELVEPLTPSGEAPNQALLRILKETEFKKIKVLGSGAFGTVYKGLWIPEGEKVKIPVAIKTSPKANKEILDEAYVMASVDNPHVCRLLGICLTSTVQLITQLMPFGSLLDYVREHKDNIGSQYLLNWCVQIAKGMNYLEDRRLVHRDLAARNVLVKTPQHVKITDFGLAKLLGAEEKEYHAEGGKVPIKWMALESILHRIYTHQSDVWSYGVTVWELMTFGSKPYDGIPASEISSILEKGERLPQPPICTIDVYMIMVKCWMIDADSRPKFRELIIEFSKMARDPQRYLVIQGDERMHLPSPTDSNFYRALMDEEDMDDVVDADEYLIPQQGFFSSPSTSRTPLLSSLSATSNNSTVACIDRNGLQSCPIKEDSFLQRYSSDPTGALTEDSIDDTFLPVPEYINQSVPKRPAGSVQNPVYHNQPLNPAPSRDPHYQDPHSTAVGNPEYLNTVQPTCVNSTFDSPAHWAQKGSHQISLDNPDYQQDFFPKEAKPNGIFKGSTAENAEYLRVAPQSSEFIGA
Assay: Biological Activity Assay C: biochemical assay against EGFR exon 19 deletion/C797S protein (EGFR d19/CS)
Quick reference for log10 IC50 among some compounds
On a log10 scale: recorded IC50, unit nM.

Past entries and their recorded results:
compound	log10 IC50
OCCCc1nc(-c2ccc(F)cc2)c(-c2ncnc3sc(-c4ccccc4)cc23)o1	0.46
COC1(Cn2cc(-c3ncnc4oc(-c5ccccc5)cc34)c(-c3ccc(F)cc3)n2)COC1	0.17
Cn1cnc(-c2cc3c(-c4cn(C5CS(=O)(=O)C5)nc4-c4ccc(F)cc4)ncnc3o2)c1	-0.89
Fc1ccc(-c2nn(CC(F)F)cc2-c2ncnc3oc(-c4ccccc4)cc23)cc1	-0.47
O=S1(=O)CC(n2cc(-c3ncnc4oc(-c5cnccn5)cc34)c(-c3ccc(F)cc3)n2)C1	0.35

Exercise: Any idea what log10 IC50 was measured for FCCCCn1cc(-c2ncnc3oc(-c4ccccc4)cc23)c(-c2ccc(F)cc2)n1 ?
Solution: 0.21

Exercise: What measured log10 IC50 goes with CNC(=O)CCn1cc(-c2ncnc3oc(-c4ccccc4)cc23)c(-c2ccc(F)cc2)n1 ?
Solution: -0.57

Exercise: Item under review: Cn1cnc(-c2cc3c(-c4cn(CC(F)(F)CO)nc4-c4ccc(F)cc4)ncnc3o2)c1 . Reported log10 IC50?
Solution: -1.03

Exercise: Given the compound Fc1ccc(-c2nn([C@@H]3CCCCC3(F)F)cc2-c2ncnc3oc(-c4ccccc4)cc23)cc1 (single isomer, unassigned) , what is its reported log10 IC50?
Solution: 0.71

Exercise: Recorded log10 IC50 for CC1(C)C[C@@H](n2cc(-c3ncnc4oc(-c5ccccc5)cc34)c(-c3ccc(F)cc3)n2)CO1 (single isomer, unassigned) , please?
Solution: -0.13

###

Target: recombinant human EGFR exon 19 deletion/C797S double mutant protein (Homo sapiens (Human), UniProt P00533, C797S/DEL746-750)
Assay: Biological Activity Assay C: biochemical assay against EGFR exon 19 deletion/C797S protein (EGFR d19/CS)
assay_metric: IC50 (nM)
Quick note: give the figure in nM, leave out the unit.

molecule	unit_spec	IC50
Cc1ncccc1-c1cc2c(-c3cn(C4CS(=O)(=O)C4)nc3-c3ccc(F)cc3)ncnc2o1	nM	0.25

Exercise: Could you share which IC50 value was measured for Fc1ccc(-c2nn([C@@H]3CCOC[C@@H]3F)cc2-c2ncnc3oc(-c4ccccc4)cc23)cc1 (single isomer, unassigned) ?
Solution: 0.35

###

Target: recombinant human EGFR exon 19 deletion/C797S double mutant protein (Homo sapiens (Human), UniProt P00533, C797S/DEL746-750)
Assay: Biological Activity Assay C: biochemical assay against EGFR exon 19 deletion/C797S protein (EGFR d19/CS)
Consider the following molecules and their measured IC50 readings.
Response body: numeric value in nM, unit text excluded.

Solved entries (count: 3):
molecule	unit_spec	IC50
O=S1(=O)CC[C@@H](n2cc(-c3ncnc4oc(-c5ccccc5)cc34)c(-c3ccc(F)cc3)n2)C1 (single isomer, unassigned) [Example 72]	nM	0.36
Fc1ccc(-c2nn(C3CCOC3)cc2-c2ncnc3oc(-c4ccccc4)cc23)cc1 (racemic) [Example 85]	nM	0.39
CC(=O)N1CC=C(c2nc3c(-c4cn(C5CS(=O)(=O)C5)nc4-c4ccc(F)cc4)ncnc3[nH]2)CC1 [Example 191]	nM	0.65

Exercise: Requested read-out: IC50. Entry: O=S1(=O)CC(n2nc(-c3ccc(F)cc3)c(-c3ncnc4oc(-c5ccccc5)cc34)n2)C1 [Example 104]
Solution: 0.46

###

Biological target: recombinant human EGFR exon 19 deletion/C797S double mutant protein (Homo sapiens (Human), UniProt P00533, C797S/DEL746-750)
Assay: Biological Activity Assay C: biochemical assay against EGFR exon 19 deletion/C797S protein (EGFR d19/CS)
Method: In Row A of a 384-well polypropylene plate, was added 48 μL of DMSO. In wells A1 and A24, were added 12 μL of DMSO. […] To a well in Row A were added 12 μL of each 10 mM test compound stock (100% DMSO). […] To the black low volume assay ready plates, were added 5 μL of 40 uM Phosphosens peptide sensor/4 mM ATP working solution to each well. […] The slope of each curve was constructed using Dotmatics in each well, and each IC50s was calculated using a 4-parameter fit model.
Listed next: entries and their corresponding pIC50.
Recall that pIC50 is obtained by taking minus log10 of the concentration measured in molar.

compound	assay_metric	recorded_measurement
Fc1ccc(-c2nn([C@H]3CCOC[C@@H]3F)cc2-c2ncnc3oc(-c4ccccc4)cc23)cc1 (single isomer, unassigned) [Example 152]	pIC50	8.88
Cn1cc(-c2cc3c(-c4cn(CC(C)(C)O)nc4-c4ccc(F)cc4)ncnc3o2)cn1 [Example 261]	pIC50	9.69
CS(=O)(=O)n1ncc(-c2ncnc3oc(-c4ccccc4)cc23)c1-c1ccc(F)cc1 [Example 56]	pIC50	8.34
CC(C)(O)CCn1nc(-c2ccc(F)cc2)c(-c2ncnc3oc(-c4ccccc4)cc23)n1 [Example 82]	pIC50	8.54

Kindly consider the entry below.
Exercise: Entry CC(C)(O)Cn1cc(-c2ncnc3oc(-c4cccnc4O)cc23)c(-c2ccc(F)cc2)n1 [Example 283] has what pIC50?
Solution: 9.95

###

Target: recombinant human EGFR exon 19 deletion/C797S double mutant protein (Homo sapiens (Human), UniProt P00533, C797S/DEL746-750)
Assay: Biological Activity Assay C: biochemical assay against EGFR exon 19 deletion/C797S protein (EGFR d19/CS)
assay_metric: pIC50
// field semantics: pIC50 = negative decimal log of concentration (mol/L)

compound	pIC50
Fc1ccc(-c2nn(C[C@H]3C[C@H](F)C3)cc2-c2ncnc3oc(-c4ccccc4)cc23)cc1	8.52
CC(C)(Cn1cc(-c2ncnc3oc(-c4ccccc4)cc23)c(-c2ccc(F)cc2)n1)C(N)=O	9.59
CC(=O)N1CC(n2cc(-c3ncnc4oc(-c5ccccc5)cc34)c(-c3ccc(F)cc3)n2)C1	8.18
NS(=O)(=O)CCCn1cc(-c2ncnc3oc(-c4ccccc4)cc23)c(-c2ccc(F)cc2)n1	9.47
Fc1ccc(-c2nn(CCC3COC3)cc2-c2ncnc3oc(-c4ccccc4)cc23)cc1	8.96

Exercise: # get_value(readout='pIC50', item= CC(O)Cn1cc(-c2ncnc3oc(-c4ccccc4)cc23)c(-c2ccc(F)cc2)n1 (stereo not drawn) )
Solution: 9.75

Exercise: Item under review: O=S1(=O)CCC(n2cc(-c3ncnc4oc(-c5ccccc5)cc34)c(-c3ccc(F)cc3)n2)C1 (stereo not drawn) . Reported pIC50?
Solution: 9.43

Exercise: Quick check: pIC50 of CS(=O)(=O)CCCn1cc(-c2ncnc3oc(-c4ccccc4)cc23)c(-c2ccc(F)cc2)n1 ?
Solution: 9.54

Exercise: Dear colleague, I am looking for the recorded pIC50 of the following compound: CN(C)C(=O)CCc1nc(-c2ccc(F)cc2)c(-c2ncnc3oc(-c4ccccc4)cc23)o1
Solution: 8.59

Exercise: GET /values?readout=pIC50&item= OCCCc1nc(-c2ccc(F)cc2)c(-c2ccnc3[nH]c(-c4ccccc4)cc23)s1
Solution: 8.94

Exercise: Param item = CC(C)(O)Cn1cc(-c2ncnc3oc(-c4ccccc4)cc23)c(-c2cccc(F)c2)n1 ; retrieve measured pIC50.
Solution: 9.49

Exercise: Tell me the measured pIC50 of CS(=O)(=O)[C@@H]1CC[C@H](n2cc(-c3ncnc4oc(-c5ccccc5)cc34)c(-c3ccc(F)cc3)n2)C1 (racemic) [Example 185] , please.
Solution: 8.84

Exercise: Would you mind telling me what pIC50 value was observed for Fc1ccc(-c2nn([C@@H]3CCCOC3)cc2-c2ncnc3oc(-c4ccccc4)cc23)cc1 (single isomer, unassigned) ?
Solution: 9.01

###

Biological target: recombinant human EGFR exon 19 deletion/C797S double mutant protein (Homo sapiens (Human), UniProt P00533, C797S/DEL746-750)
Assay: Biological Activity Assay C: biochemical assay against EGFR exon 19 deletion/C797S protein (EGFR d19/CS)
pIC50 by entry:
Note on units: pIC50 is unitless, being -log10 of a concentration expressed in mol/L.

compound	pIC50
CC(C)(O)Cn1cc(-c2ncnc3oc(-c4ccccc4)cc23)c(-c2ccc(F)cc2)n1 [Example 46]	9.50
N#CCCc1cccc(-c2cc3c(-c4cn(C5CS(=O)(=O)C5)nc4-c4ccc(F)cc4)ncnc3o2)c1 [Example 232]	9.64
O=C1CCCCN1c1cc2c(-c3cn(C4CS(=O)(=O)C4)nc3-c3ccc(F)cc3)ncnc2o1 [Example 160]	8.30
O=S1(=O)CC(n2cc(-c3ncnc4oc(-c5cccnc5)cc34)c(-c3ccc(F)cc3)n2)C1 [Example 164]	9.54
Fc1ccc(-c2nn(C3COC3)cc2-c2ncnc3oc(-c4ccccc4)nc23)cc1 [Example 80]	8.49
Fc1ccc(-c2nn(CC3CCO3)cc2-c2ncnc3oc(-c4ccccc4)cc23)cc1 (stereo not shown) [Example 69]	9.42

Exercise: Tell me the measured pIC50 of O=S1(=O)CCC(Cn2cc(-c3ncnc4oc(-c5ccccc5)cc34)c(-c3ccc(F)cc3)n2)C1 (racemic) [Example 53] , please.
Solution: 9.27

Exercise: May I ask what pIC50 has been recorded for OCCCn1cc(-c2ccnc3[nH]c(-c4ccccc4)nc23)c(-c2ccc(F)cc2)n1 [Example 4] ?
Solution: 9.33

Exercise: Which measured pIC50 value corresponds to O=S1(=O)CC(n2cc(-c3ncnc4oc(-c5ccccc5C(F)(F)F)cc34)c(-c3ccc(F)cc3)n2)C1 [Example 182] ?
Solution: 8.78

Exercise: GET /values?readout=pIC50&item= N#CCn1cc(-c2ncnc3oc(-c4ccccc4)cc23)c(-c2ccc(F)cc2)n1 [Example 30]
Solution: 8.73

Exercise: pIC50 lookup needed for OCCn1cc(-c2ncnc3oc(-c4ccccc4)cc23)c(-c2ccc(F)cc2)n1 [Example 94] , thanks.
Solution: 9.96

Exercise: Look at this compound and give its reported pIC50. N#CCCn1cc(-c2ncnc3oc(-c4ccccc4)cc23)c(-c2ccc(F)cc2)n1 [Example 70]
Solution: 9.46

Exercise: Form field: reported pIC50 of O[C@H]1C[C@H](n2cc(-c3ncnc4oc(-c5ccccc5)cc34)c(-c3ccc(F)cc3)n2)C1 [Example 121]
Solution: 9.85

Exercise: May I ask what pIC50 has been recorded for Cc1nn(C)c(C(F)F)c1-c1cc2c(-c3cn(CC(C)(C)O)nc3-c3ccc(F)cc3)ncnc2o1 [Example 280] ?
Solution: 9.54

Exercise: Report pIC50 for CNC(=O)Cn1cc(-c2ncnc3oc(-c4ccccc4)cc23)c(-c2ccc(F)cc2)n1 [Example 143] please.
Solution: 9.42
